# Test system: Hs578T complex spheroid growth, percent test/control
# assay procedure: Anticancer human tumor Hs578T cell line growth inhibition [AhR];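 note: luminescent viability signal as a proxy for spheroid growth; spheroids exposed to agents for one week after three days of growth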
# settings: second compound 0.316 µM; first compound 0.316 µM; active compounds read low
# viability, T/C listing for each entry below
Note: unit % is implicit; provide only the numeric part.

compound	viability, T/C, %
COc1cc(Nc2ncc3c(n2)-c2ccc(Cl)cc2C(c2c(F)cccc2OC)=NC3)ccc1C(=O)O + CC(CO)NC(=O)c1cc(-c2ccc(Cl)cc2)nn(-c2cnn(C)c2)c1=O	100
COc1ccc([C@@H](O)c2cc(-c3ncnc4cc(N5CCOCC5)ccc34)c(F)cc2Cl)nn1 + Cc1cncc(-c2nc(NCCc3c[nH]c4ccccc34)c3ncn(C(C)C)c3n2)c1	109
Nc1ncn(C2CC(O)C(CO)O2)c(=O)n1 (configuration not stated) + CC(CO)NC(=O)c1cc(-c2ccc(Cl)cc2)nn(-c2cnn(C)c2)c1=O	120

The reported viability, T/C of the compound COc1cccc2c1C(=O)c1c(O)c3c(c(O)c1C2=O)CC(O)(C(=O)CO)CC3OC1CC(N)C(O)C(C)O1 (configuration not stated) + Cc1cncc(-c2nc(NCCc3c[nH]c4ccccc34)c3ncn(C(C)C)c3n2)c1 was 68.2

Lab note: O=C(c1cc(Cc2n[nH]c(=O)c3ccccc23)ccc1F)N1CCN(C(=O)C2CC2)CC1 + CC(CO)NC(=O)c1cc(-c2ccc(Cl)cc2)nn(-c2cnn(C)c2)c1=O gave viability, T/C of 114

The recorded viability, T/C for entry Nc1ccn(C2OC(CO)C(O)C2(F)F)c(=O)n1 (configuration not stated) + CC(CO)NC(=O)c1cc(-c2ccc(Cl)cc2)nn(-c2cnn(C)c2)c1=O equals 52.5
